Reference for the values: patent US6894052B1

assayed_target: 5-HT2A serotonergic receptors (Rattus norvegicus, UniProt P14842)
Construct: from tissue; host or cells: cerebral cortex of male Sprague Dawley rats, membranes
Sequence (P14842 whole entry): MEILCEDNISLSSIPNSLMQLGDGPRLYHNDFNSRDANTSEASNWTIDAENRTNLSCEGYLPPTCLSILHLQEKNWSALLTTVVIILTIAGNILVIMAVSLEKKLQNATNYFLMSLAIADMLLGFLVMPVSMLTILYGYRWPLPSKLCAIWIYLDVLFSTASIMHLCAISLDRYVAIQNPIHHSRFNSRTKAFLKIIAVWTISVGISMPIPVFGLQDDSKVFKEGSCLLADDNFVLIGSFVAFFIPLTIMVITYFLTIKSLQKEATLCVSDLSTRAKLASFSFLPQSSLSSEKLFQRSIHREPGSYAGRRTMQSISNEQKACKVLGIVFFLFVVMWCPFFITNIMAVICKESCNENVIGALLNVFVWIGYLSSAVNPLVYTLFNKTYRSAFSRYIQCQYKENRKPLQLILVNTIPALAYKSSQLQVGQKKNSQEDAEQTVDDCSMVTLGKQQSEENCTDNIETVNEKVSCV
experimental_details: Radioreceptor binding to native 5-HT2A serotonergic receptors ([3H]ketanserin, rat cerebral cortex membranes)
reported_conditions: rat cerebral cortex membranes, [3H]ketanserin; read-out: Ki 5-HT2A
Structures can show the parent of a compound that is named as a salt.

{"molecule": "COc1ccccc1N1CCN(CCC(c2ccccn2)c2ccccn2)CC1 [Ex. 8]", "value_qualifier": "=", "Ki (nM)": 320}
{"molecule": "COc1ccccc1N1CCN(CCC(C#N)(c2ccccc2)c2ccccc2[N+](=O)[O-])CC1 (stereo not shown) [Ex. 12]", "value_qualifier": "=", "Ki (nM)": 790}
{"molecule": "COc1ccccc1N1CCN(CCC(O)(c2ccccn2)c2ccccn2)CC1 [Ex. 14]", "value_qualifier": ">", "Ki (nM)": 1000}
{"molecule": "c1ccc(C(CCN2CCN(c3cccc4c3OCCO4)CC2)c2ccccc2)cc1 [Ex. 2]", "value_qualifier": "=", "Ki (nM)": 159}
{"molecule": "COc1ccccc1N1CCN(CCC(c2ccccc2)c2ccccc2)CC1 [Ex. 1, hydrochloride]", "value_qualifier": "=", "Ki (nM)": 320}
{"molecule": "COc1ccccc1N1CCN(CCC(C(N)=O)(c2ccccc2)c2ccccn2)CC1 (stereo not shown) [Ex. 10]", "value_qualifier": "=", "Ki (nM)": 683}
{"molecule": "COc1ccccc1N1CCN(CCC(c2ccccc2)c2ccccn2)CC1 (stereo not shown) [Ex. 9]", "value_qualifier": "=", "Ki (nM)": 1020}

###

Listed here are compounds together with their documented log10(Ki).
assayed_target: human 5-HT1A serotonergic receptor (Homo sapiens)
Construct: expressed in transfected cells; host or cells: HeLa (human), stably transfected; cell membranes
Sequence (P08908 whole entry): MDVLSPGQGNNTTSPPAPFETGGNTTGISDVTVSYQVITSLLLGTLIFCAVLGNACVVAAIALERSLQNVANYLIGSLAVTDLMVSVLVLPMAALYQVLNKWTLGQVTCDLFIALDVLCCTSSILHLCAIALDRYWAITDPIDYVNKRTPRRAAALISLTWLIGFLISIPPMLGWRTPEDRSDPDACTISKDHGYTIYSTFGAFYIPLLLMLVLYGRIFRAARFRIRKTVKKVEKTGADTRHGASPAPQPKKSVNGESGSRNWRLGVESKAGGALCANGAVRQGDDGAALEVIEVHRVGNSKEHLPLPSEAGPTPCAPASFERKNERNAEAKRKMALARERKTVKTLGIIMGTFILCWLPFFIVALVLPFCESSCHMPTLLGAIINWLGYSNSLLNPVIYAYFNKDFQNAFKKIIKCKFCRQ
experimental_details: Radioreceptor binding to recombinant human 5-HT1A receptors ([3H]8-OH-DPAT, HeLa cell membranes)
reported_conditions: recombinant human receptor in HeLa membranes, [3H]8-OH-DPAT; read-out: Ki 5-HT1A
Where a name gives a salt, the structure may show the parent alone.
endpoint_label: log10(Ki) (log10 of the value in nM)

{"compound": "COc1ccccc1N1CCN(CCC(C#N)(c2ccccc2)c2ccccn2)CC1.Cl.Cl (stereo not shown) [Ex. 7, dihydrochloride]", "log10(Ki)": 0.89}
{"compound": "c1ccc(C(CCN2CCN(c3cccc4c3OCCO4)CC2)c2ccccc2)cc1", "log10(Ki)": -0.22}
{"compound": "COc1ccccc1N1CCN(CCC(c2ccccc2)c2ccccn2)CC1 (stereo not shown)", "log10(Ki)": -0.21}
{"compound": "COc1ccccc1N1CCN(CCC(c2ccccc2)c2ccccc2)CC1 [Ex. 1, hydrochloride]", "log10(Ki)": 0.59}
{"compound": "COc1ccccc1N1CCN(CCC(O)(c2ccccn2)c2ccccn2)CC1", "log10(Ki)": -0.47}
{"compound": "COc1ccccc1N1CCN(CCC(c2ccccn2)c2ccccn2)CC1", "log10(Ki)": 0.60}
{"compound": "COc1ccccc1N1CCN(CCN(c2ccccn2)c2ccccc2[N+](=O)[O-])CC1", "log10(Ki)": 0.83}

###

assayed_target: α1 adrenergic receptors
experimental_details: Radioreceptor binding to native α1 adrenergic receptors ([3H]prazosin, rat cerebral cortex membranes)
pKi: −log10 of the molar value. Where a name gives a salt, the structure may show the parent alone.
Reported values of pKi for individual entries

{"compound": "COc1ccccc1N1CCN(CCC(C(N)=O)(c2ccccn2)c2ccccc2[N+](=O)[O-])CC1 (stereo not drawn)", "assayed_target": "α1 adrenergic receptors", "pKi": 6.51}
{"compound": "COc1ccccc1N1CCN(CCC(C(N)=O)(c2ccccc2)c2ccccc2[N+](=O)[O-])CC1 (stereo not drawn)", "assayed_target": "α1 adrenergic receptors", "pKi": 6.44}
{"compound": "COc1ccccc1N1CCN(CCC(c2ccccn2)c2ccccn2)CC1", "assayed_target": "α1 adrenergic receptors", "pKi": 6.72}
{"compound": "COc1ccccc1N1CCN(CCC(C#N)(c2ccccn2)c2ccccn2)CC1", "assayed_target": "α1 adrenergic receptors", "pKi": 5.90}
{"compound": "COc1ccccc1N1CCN(CCC(c2ccccc2)c2ccccc2)CC1 [Ex. 1, hydrochloride]", "assayed_target": "α1 adrenergic receptors", "pKi": 6.84}
{"compound": "COc1ccccc1N1CCN(CCC(c2ccccc2)c2ccccn2)CC1 (stereo not drawn)", "assayed_target": "α1 adrenergic receptors", "pKi": 6.57}
{"compound": "COc1ccccc1N1CCN(CCN(c2ccccn2)c2ccccc2[N+](=O)[O-])CC1", "assayed_target": "α1 adrenergic receptors", "pKi": 7.20}
{"compound": "c1ccc(C(CCN2CCN(c3cccc4c3OCCO4)CC2)c2ccccc2)cc1", "assayed_target": "α1 adrenergic receptors", "pKi": 6.68}
{"compound": "COc1ccccc1N1CCN(CCC(C#N)(c2ccccc2)c2ccccc2[N+](=O)[O-])CC1 (stereo not drawn)", "assayed_target": "α1 adrenergic receptors", "pKi": 6.65}
